assay: in vivo; conditions: Sprague-Dawley, rat, brain, iv, 2 (umol/kg)/hr
Attribute Measured: Kp uu at 4 h
Write the value as a bare number.

Molecule | Kp uu at 4 h
CCn1cc(C(=O)O)c(=O)c2cc(F)c(N3CCNCC3)cc21 | 0.028
Nc1c2c(nc3ccccc13)CCCC2 | 0.78
Nc1nnc(-c2cccc(Cl)c2Cl)c(N)n1 | 0.88
O=C(O)c1ccccc1O | 0.19

Please find the next molecule below.
Task: Which value of Kp uu at 4 h has been reported for CO[C@@]1(NC(=O)C(C(=O)O)c2ccc(O)cc2)C(=O)N2C(C(=O)O)=C(CSc3nnnn3C)CO[C@@H]21 (stereo not given in full) in the records?
Output: 0.019
